# Tested on: U-2932
# experimental_details: growth inhibition by drug alone (1 - RLU/untreated control) (fraction); higher = stronger inhibition
# condition_label: 10 nM; time (day): 3; 177Lu-lilotomab satetraxetan 0 ug/ml
Measured growth inhibition by drug alone of individual entries
Form: value (number only, do not type unit).

Problem: Query the reported growth inhibition by drug alone for U-2932; item: Cn1cnc2c(F)c(Nc3ccc(Br)cc3Cl)c(C(=O)NOCCO)cc21 [AZD6244 (Selumetinib)]
Result: 0.124

###

# Tested on: U-2932
# experimental_details: growth inhibition by drug plus 177Lu-lilotomab satetraxetan (1 - RLU/untreated control) (fraction); higher = stronger inhibition
# condition_label: 1000 nM; time (day): 4; 177Lu-lilotomab satetraxetan 1 ug/ml
Classification field: enter Fulfilled for growth inhibition by drug plus 177Lu-lilotomab satetraxetan values not below 0.2, Not fulfilled for values below it.

Recorded results for 6 compounds are shown here.
compound	study_target	group
S=C(NCc1ccc2c(c1)OCO2)N1CCN(c2ncnc3c2oc2ccccc23)CC1	U-2932	Fulfilled
CC(C)(C#N)c1cc(Cn2cncn2)cc(C(C)(C)C#N)c1	U-2932	Not fulfilled
CC1(CN2CCC(n3c(=O)[nH]c4ccccc43)CC2)OCc2ccccc2-n2cccc21 (configuration not stated)	U-2932	Not fulfilled
O=C(O)C1(C(=O)O)CCC1.[NH2-].[NH2-].[Pt+2]	U-2932	Not fulfilled
O=C(NCCS(=O)(=O)c1ccc(C(F)(F)F)cn1)c1ccc(Cl)cc1	U-2932	Not fulfilled
c1ccc2c(CCNc3ccc(Nc4ccncc4)cc3)c[nH]c2c1	U-2932	Not fulfilled

Problem: Kindly determine if growth inhibition by drug plus 177Lu-lilotomab satetraxetan recorded for O=C(Nc1ccc(OC(F)(F)F)cc1)c1sccc1NCc1ccnc2ccccc12 is above or exactly 0.2.
Result: Not fulfilled
